Reference for the values: PubChem BioAssay (NCI)

Tested on: SF-295 CNS
Test: NCI-60 one-dose screen, 48 h (100 = growth as untreated, 0 = no growth, -100 = all killed)
Conditions: 10 µM unless noted
This is part of a sample that, as a whole, favours compounds with a hit. Of some 83,000 tested, about 20% had one in any assay.
Lab note - cut at 80% for growth: satisfied if strictly below, not satisfied if not.

The examples below pair each entry with its known result.
INSERT INTO assay_data (molecule, experimental_system, classification) VALUES
  ('C#CCNC(=O)[C@]1(C)CC[C@]2(C)CC[C@@H]3C(=CC[C@H]4[C@@]3(C)CC[C@H]3C(C)(C)C(=O)CC[C@]43C)[C@@H]2C1', 'SF-295 CNS', 'not satisfied'),
  ('O=Cc1cc2ccccc2nc1Oc1ccc(C(F)(F)F)cc1', 'SF-295 CNS', 'not satisfied');

Ask | Lab note: confirm whether the reported growth for this molecule is below 80%, equality not counting. molecule: O=Cc1ccc(-c2cn3ccnc3c(-c3ccc4ncn(Cc5ccccc5)c4c3)n2)cc1
Reply | satisfied

Ask | Given the entry COc1cc2oc(-c3cccc(C(=O)Nc4ccc(Br)cc4)c3)cc(=O)c2c(OC)c1OC , would its reported growth be below 80%?
Reply | satisfied

Ask | Could you please tell me whether growth recorded for COc1cc2c3c(c4c5ccccc5[nH]c4c2c(OC)c1OC)C(=O)N(CCN1CCOCC1)C3=O is less than 80%?
Reply | satisfied

Ask | growth under 80%? Item: COC(=O)C1=C(C(=O)ON)C2C=CC1(C(Cc1ccccc1)Nc1ccccc1)O2 (centres undefined)
Reply | not satisfied

Ask | Hi there! Is growth for COc1ccc(C/C(=C(\C)c2ccc(OCCN3CCCC3)cc2)c2ccc(OCCN3CCCC3)cc2)cc1 below 80%, do you know?
Reply | satisfied

Ask | Please let me know if O=C(Nc1ncc(Cc2cc(Cl)ccc2Cl)s1)c1cccs1 shows growth below 80%.
Reply | satisfied

Ask | Is growth strictly under 80% for the entry Cc1ccc(NC(=O)Cc2ccc(/C=C/C(=O)c3ncc[nH]3)cc2)cc1 ?
Reply | satisfied

----------
Listing: growth of selected compounds
System: K-562 leukemia
Experiment: NCI-60 one-dose screen, 48 h (100 = growth as untreated, 0 = no growth, -100 = all killed)
Details: 10 µM unless noted
About 83,000 compounds went through this panel and 20% of them were active in at least one assay; those are over-represented in the sample as a whole.
Numbers only; they are read as %.

INSERT INTO results (compound, readout_label, result_unit, measured_result) VALUES
  ('O=S(=O)(NCCCNc1nccc(-c2c(-c3cccc(F)c3)nc3sccn23)n1)c1cccc(F)c1', 'growth', '%', 20.1),
  ('COc1ccccc1NC(=O)C1CC(c2ccc(F)cc2)=NO1 (stereo unspecified)', 'growth', '%', 95),
  ('CN(C)CC(O)c1ccc(/C=C/c2ccc(Cl)cc2)cc1 (stereo unspecified)', 'growth', '%', -47.6);

Ask | Report growth for CCCOc1ccc(/C=N/Nc2cc(C)nc3ccc(Cl)cc23)cc1 please.
Reply | -37

Ask | Would you kindly share the measured growth for COc1cc(-c2csc(NC(=O)c3cc(F)cc(C(F)(F)F)c3)n2)cc(OC)c1OC ?
Reply | 8.12

Ask | Which growth value is on record for O=c1[nH]nc(-c2ccccc2)c2sc3ncc(-c4ccc(Br)cc4)n3c12 ?
Reply | 16.1
